Can you tell me glycan array binding signal (z-score) for the items I'm about to list?
Target: Gal(b1-4)GlcNAc(b1-3)Gal(b1-4)[Fuc(a1-3)]GlcNAc(b1-3)Gal(b1-4)[Fuc(a1-3)]GlcNAc
Experiment: glycan array binding signal (z-score within array); higher = stronger binding
Conditions: glycan notation: IUPAC condensed, linker removed
Many of the other results were omitted from the sample, so the strongest signals are more common in it than they were.

Form: binder = Ecp6 (Cladosporium fulvum), B3VBK9 (protein) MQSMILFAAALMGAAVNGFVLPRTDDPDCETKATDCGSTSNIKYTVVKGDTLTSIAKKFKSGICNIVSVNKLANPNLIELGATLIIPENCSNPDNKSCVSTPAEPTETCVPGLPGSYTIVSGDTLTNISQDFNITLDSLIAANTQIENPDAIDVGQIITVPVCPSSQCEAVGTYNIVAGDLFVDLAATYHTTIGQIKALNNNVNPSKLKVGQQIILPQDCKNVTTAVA ; glycan array binding signal (z-score) = -0.036

Form: binder = CFEM-CGl (Candida glabrata), Q6FRS0 (protein) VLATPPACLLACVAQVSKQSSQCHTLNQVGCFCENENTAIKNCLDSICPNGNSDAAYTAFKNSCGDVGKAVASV ; glycan array binding signal (z-score) = -0.249

Form: binder = CIH1 (Colletotrichum higginsianum) (protein) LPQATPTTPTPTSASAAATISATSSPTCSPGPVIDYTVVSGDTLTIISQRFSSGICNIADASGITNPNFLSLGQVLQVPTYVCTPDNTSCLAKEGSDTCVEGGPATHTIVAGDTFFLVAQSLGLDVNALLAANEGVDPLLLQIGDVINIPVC ; glycan array binding signal (z-score) = -0.079
